Target: human CD33 (human, UniProt P20138 18-364)
Sequence (P20138 18-364): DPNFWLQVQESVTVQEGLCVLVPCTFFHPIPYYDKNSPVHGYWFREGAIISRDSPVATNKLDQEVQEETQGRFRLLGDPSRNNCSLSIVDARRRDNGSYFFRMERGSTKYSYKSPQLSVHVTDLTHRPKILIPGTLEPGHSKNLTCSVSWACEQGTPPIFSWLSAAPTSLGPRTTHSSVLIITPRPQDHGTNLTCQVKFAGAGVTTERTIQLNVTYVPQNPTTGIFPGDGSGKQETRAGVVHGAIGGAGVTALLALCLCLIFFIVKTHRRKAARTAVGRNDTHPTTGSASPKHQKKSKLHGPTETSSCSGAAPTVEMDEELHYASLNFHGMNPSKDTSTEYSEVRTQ
Assay: cell-based or functional assay
Measured Percent CD33 Surface Expression, Macrophage % CD33 values are reported for all entries that follow.
Please respond with the number in % and leave the unit unwritten.

Worked examples follow.
binder: C-3 (antibody, V domains shown, human IgG1) VH: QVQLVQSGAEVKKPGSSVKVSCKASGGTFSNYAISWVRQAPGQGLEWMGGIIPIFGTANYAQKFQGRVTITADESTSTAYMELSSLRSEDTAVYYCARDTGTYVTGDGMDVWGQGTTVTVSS VL: EIVMTQSPATLSVSPGERATLSCRASQSVSSNLAWYQQKPGQAPRLLIYGASTRATGIPARFSGSGSGTEFTLTISSLQSEDFAVYYCQQYDVWPITFGGGTKVEIK
result: 63.5
--
binder: C-60 (antibody, V domains shown, human IgG1) VH: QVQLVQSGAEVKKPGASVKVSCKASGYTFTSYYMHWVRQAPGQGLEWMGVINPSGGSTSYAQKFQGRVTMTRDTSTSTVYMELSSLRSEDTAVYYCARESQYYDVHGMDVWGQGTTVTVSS VL: DIQLTQSPSSLSASVGDRVTITCRASQSISSYLNWYQQKPGKAPKLLIYAASSLQSGVPSRFSGSGSGTDFTLTISSLQPEDFATYYCQQSVHVPITFGGGTKVEIK
result: 45.4

Proceed to the following item.
Ask: What measured Percent CD33 Surface Expression, Macrophage % CD33 goes with C-65 (antibody, V domains shown, human IgG1) VH: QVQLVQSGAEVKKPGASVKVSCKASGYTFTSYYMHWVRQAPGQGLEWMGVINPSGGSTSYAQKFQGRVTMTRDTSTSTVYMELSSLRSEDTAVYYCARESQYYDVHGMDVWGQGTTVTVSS VL: DIQMTQSPSSLSASVGDRVTITCRASQSISSYLNWYQQKPGKAPKLLIYAASSLQSGVPSRFSGSGSGTDFTLTISSLQPEDFATYYCQQQYTLPPTFGGGTKVEIK ?
Result: 44.5
